Relative binding activity, % values by entry
TARGET_OR_TEST_SYSTEM: T1, Biotin-huCGRPaSA (human, not fully specified; biotin (position not given))
T1 construct: exact construct ('aSA') not explained; also called Biotin CGRPaSA; full-length (1-37) CGRP
T1 peptide: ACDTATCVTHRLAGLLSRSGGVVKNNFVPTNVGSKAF
EXPERIMENTAL_PROTOCOL: ELISA, supernatant; relative to chimeric C245
Number in %, nothing else.

Some binders with recorded Relative binding activity, %:
>>> value_observed("hu4 (antibody, V domains shown, 1B2 HC-1/1A2 LC2-4) VH: QVQLVQSGAEVKKPGASVKVSCKASGYTFTDYNMHWVRQAPGQGLEWMGYIFPYNGVAVYNRKFRSRVTLTIDTSSSTAYMELRSLRSDDTAVYYCAREGLGGYWGQGTLVTVSS VL: DIQLTQSPSFLSASVGDRVTITCKASQNIDYDGYAYLNWYQQKPGKAPKVLIYSVFNLESGVPSRFSGSGSGTEFTLTISSLQPEDFATYYCQQSNEFPYTFGQGTKLEIK")
58
>>> value_observed("hu62 (antibody, V domains shown, 1F5 HC-3/2B8 LC2-2) VH: QVQLVQSGAEVKKPGASVKVSCKASGYTFTDFNMHWVRQAPGQGLEWMGYIYPYNGDVVYNQNFTNRVTLTVDTSSSTAYMELRSLRSDDTAVYYCAREGLGGYWGQGTLVTVSS VL: DVQLTQSPSFLSASVGDRVTITCQASQNIDGNTYMNWYQQKPGKAPKVLIYSIFNLESGVPSRFSGSGSGTEFTLTISSLQPEDFATYYCQQSNDYPYTFGQGTKLEIK")
15

Read the next record carefully.
Measured Relative binding activity, % of hu91 (antibody, V domains shown, 1F5 HC-5/3H10 LC2-2) VH: QVQLVQSGAEVKKPGASVKVSCKASGYTFIDFNMHWVRQAPGQRLEWMGYIYPYNADVVYNQDFTNRVTLTVDTSSSTAYMELSSLRSEDTAVYYCAREGLGGYWGQGTLVTVSS VL: DIQLTQSPSSLSASVGDRVTITCKASQNIDYGGYSYMNWYQQKPGKAPKVLIYSVFNLESGVPSRFSGSGSGTDFTLTISSLQPEDFATYYCQQSNEAPYTFGQGTKLEIK : 98
